Origin of measurements: the supplement of paper PMC10567573

As shown below, each of these variants has a reported protein stability index value.
B1: SLC35F2 (parent)
chain: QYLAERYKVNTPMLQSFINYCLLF

# Variants of: B1
# EXPERIMENT SUMMARY: protein stability index of a GFP-peptide fusion (GPS, HEK-293T) (PSI 1-6); higher = more stable;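 also: lentivirally expressed fusions sorted by FACS into six bins by GFP to DsRed ratio, PSI derived from sequencing read proportions per bin multiplied by bin number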
# EXPERIMENTAL SETUP: c terminus: a fixed tail appended
Would you mind answering with just the numeric figure?

Looking up Y20K , I see its protein stability index listed as 2.5

Looking up P12G , I see its protein stability index listed as 2.73

Looking up L14V , I see its protein stability index listed as 2.31

Looking up Y7R , I see its protein stability index listed as 1.55

Looking up N19K , I see its protein stability index listed as 2.56

Looking up Q1E , I see its protein stability index listed as 1.97

Looking up K8H , I see its protein stability index listed as 2.64

Looking up V9N , I see its protein stability index listed as 2.23

Looking up M13K , I see its protein stability index listed as 2.04

Looking up T11P , I see its protein stability index listed as 1.8

Looking up Y7K , I see its protein stability index listed as 2.53

Looking up S16F , I see its protein stability index listed as 2.11

Looking up F17W , I see its protein stability index listed as 1.6

Looking up S16N , I see its protein stability index listed as 2.36

Looking up Q15Y , I see its protein stability index listed as 3.21

Looking up I18T , I see its protein stability index listed as 2.82

Looking up Y20G , I see its protein stability index listed as 2.35

Looking up Y20C , I see its protein stability index listed as 2.64

Looking up P12S , I see its protein stability index listed as 2.35

Looking up N10T , I see its protein stability index listed as 2.51

Looking up F24T , I see its protein stability index listed as 2.69

Looking up Q15S , I see its protein stability index listed as 3.63
